- Tested on: A549
- assay summary: Antiproliferative activity against human A549 cells assessed as reduction in cell viability after 48 hrs by SRB assay
- Type: functional, cell-based
- condition info: A549, 48 h
measure: pIC50
Notebook: values listed as pIC50 are -log10 of the concentration (mol/L).

Req: # query: pIC50 of entry COc1ccc(-c2nc(CNC(=O)/C(=C/c3ccc(OC)c(OC(C)=O)c3)c3cc(OC)c(OC)c(OC)c3)cc3c2[nH]c2ccccc23)cc1
Resp: 5.56

Req: # query: pIC50 of entry COc1cc(/C(=C\c2ccc(C(F)(F)F)cc2)C(=O)NCc2cc3c([nH]c4ccccc43)c(-c3cccc(F)c3)n2)cc(OC)c1OC
Resp: 6.00

Req: # query: pIC50 of entry COc1ccc(-c2nc(CNC(=O)/C(=C/c3ccc(Cl)cc3)c3cc(OC)c(OC)c(OC)c3)cc3c2[nH]c2ccccc23)cc1
Resp: 5.02

Req: # query: pIC50 of entry COc1cc(/C(=C\c2ccc(Cl)cc2)C(=O)NCc2cc3c([nH]c4ccccc43)c(-c3cc(OC)c(OC)c(OC)c3)n2)cc(OC)c1OC
Resp: 5.18

Hey, just so you know, these numbers are from ChEMBL document CHEMBL4385621.
